Attribute: TGI
Tested on: HL-60(TB) leukemia
Assay: NCI tumour cell line growth inhibition, 48 h

INSERT INTO measurements (molecule, test_value) VALUES
  ('O=c1cc(-c2ccccc2)oc2cc(OCC(O)COc3ccc4c(=O)cc(-c5ccccc5)oc4c3)ccc12', '> 100 µM'),
  ('Nc1nc(Cl)cc(NCCCNc2cc(Cl)nc(N)n2)n1', '> 100 µM'),
  ('CS/C(C#N)=C(\C#N)SC', '6.39 µM'),
  ('COc1ccccc1-c1cc(/C=C2\C(=O)Nc3ncc(Br)cc32)cc(Br)c1O', '23.7 µM'),
  ('CC(N)C(=O)OCN1C(=O)C2C3C=CC(C2C1=O)C1C2C(=O)N(COC(=O)C(C)N)C(=O)C2C31 (stereo not drawn)', '62.2 µM'),
  ('Cc1[nH]n(C2=NCCN2)c(=O)c1C', '> 100 µM'),
  ('O=C(Nc1ccc(Cl)cc1)NS(=O)(=O)c1coc2ccccc2c1=O', '> 10 µM'),
  ('CN[C@@H](C)C(=O)N[C@H]1CN(C(=O)CC(C)C)CC[C@H]2CC[C@@H](C(=O)NC(c3ccccc3)c3ccccc3)N2C1=O', '> 100 µM');

Proceeding to the next molecule to report its TGI.
Any idea what TGI was measured for "CCCOc1ccc(-c2nc(-c3ccc(N=Cc4ccc(N(CCOS(C)(=O)=O)CCOS(C)(=O)=O)cc4C)cc3)cs2)cc1" ?
54 µM
